# experimentalTarget: human P2X3 receptor (Homo sapiens (Human), UniProt P56373)
# Sequence (P56373 whole entry): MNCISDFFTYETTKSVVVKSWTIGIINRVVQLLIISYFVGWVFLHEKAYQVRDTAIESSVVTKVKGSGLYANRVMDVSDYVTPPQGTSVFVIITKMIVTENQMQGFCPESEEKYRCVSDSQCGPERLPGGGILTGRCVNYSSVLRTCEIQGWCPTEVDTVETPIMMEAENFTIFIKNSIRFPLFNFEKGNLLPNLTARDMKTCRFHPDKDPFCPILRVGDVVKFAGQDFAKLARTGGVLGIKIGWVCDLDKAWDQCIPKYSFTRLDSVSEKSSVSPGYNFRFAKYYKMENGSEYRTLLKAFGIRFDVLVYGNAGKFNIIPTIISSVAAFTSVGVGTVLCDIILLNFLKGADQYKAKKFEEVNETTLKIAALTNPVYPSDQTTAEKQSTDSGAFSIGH
# assay: P2X3 receptor inhibition, ATP-evoked Fluo-3 calcium fluorescence (FDSS 3000)
# condition: C6BU-1 cell transfected with human P2X3 receptor gene; ATP-evoked Fluo-3 fluorescence
pIC50: −log10 of the molar value.
Parameter threshold = 7. Response is Y when pIC50 meets or exceeds it, else N.

Answered examples (5):
Query: Decide: pIC50 of CCOc1ccccc1C1c2c(C(C)(C)C)n[nH]c2C(=O)N1c1ccc(-c2ccon2)cc1 (centres unmarked) [II-101] >= 7?
Reply: Y

Query: Decide: pIC50 of COCc1ccccc1C1C(C(=O)CC(C)C)=C(O)C(=O)N1c1ccc(C2=NCCS2)cc1 (centres unmarked) [Compound I-414] >= 7?
Reply: N

Query: Decide: pIC50 of COc1ccccc1C1C(C(=O)C(C)(C)C)=C(O)C(=O)N1c1ccc(-c2ccc(C)s2)cc1 (centres unmarked) [Compound I-210] >= 7?
Reply: Y

Query: Decide: pIC50 of CCOC(=O)c1ccc(N2C(=O)C(O)=C(C(=O)C(C)(C)C)C2c2ccccc2OC)cc1 (centres unmarked) [Compound I-001] >= 7?
Reply: Y

Query: Decide: pIC50 of CC(C)(C)C(=O)C1=C(O)C(=O)N(c2ccc(-c3ccon3)cc2)C1c1cccc[n+]1[O-] (centres unmarked) [Compound I-005] >= 7?
Reply: N

Proceed to the following item.
Query: Decide: pIC50 of COCc1ccccc1C1C(C(=O)C(C)C)=C(O)C(=O)N1c1ccc(SC)cc1 (centres unmarked) [Compound I-477] >= 7?
Reply: N

* * *

# experimentalTarget: human P2X3 receptor (Homo sapiens (Human), UniProt P56373)
# assay: P2X3 receptor inhibition, ATP-evoked Fluo-3 calcium fluorescence (FDSS 3000)
# condition: C6BU-1 cell transfected with human P2X3 receptor gene; ATP-evoked Fluo-3 fluorescence
Class field: derived from IC50; ranges band A = under 30 nM, band B = from 30 nM up to 100 nM, band C = 100 nM and over

Query: Could you place COc1cc(F)ccc1C1C(C(=O)C(C)(C)C)=C(O)C(=O)N1c1ccc(-c2ccon2)cc1 (stereo not shown) [Compound I-011] in its proper category? Many thanks.
Reply: band C

Query: Could you place CC(C)c1n[nH]c2c1C(c1ccccc1OCC(C)(C)O)N(c1ccc(-c3ccsc3)cc1)C2=O (stereo not shown) [II-184] in its proper category? Many thanks.
Reply: band A

Query: Could you place COCCOc1ncccc1C1C(C(=O)C2CCCC2)=C(O)C(=O)N1c1ccc(-c2ccsc2)cc1 (stereo not shown) [Compound I-517] in its proper category? Many thanks.
Reply: band A

Query: Could you place COc1ncccc1C1c2c(C(C)(C)C)n[nH]c2C(=O)N1c1ccc(-c2nccs2)cc1 (stereo not shown) [II-193] in its proper category? Many thanks.
Reply: band C

Continuing:
Query: Could you place COc1ccccc1C1c2c(C(C)(C)CO)n[nH]c2C(=O)N1c1ccc(-c2ccco2)cn1 (stereo not shown) [II-265] in its proper category? Many thanks.
Reply: band B

Query: Could you place COc1ccccc1C1c2c(C3(CO)CCCCC3)n[nH]c2C(=O)N1c1ccc(-c2ccon2)cc1 (stereo not shown) [II-064] in its proper category? Many thanks.
Reply: band B

Query: Could you place CC(C)Oc1ccccc1C1C(C(=O)C2CCCC2)=C(O)C(=O)N1c1ccc(-c2ccon2)cc1 (stereo not shown) [Compound I-512] in its proper category? Many thanks.
Reply: band B

Query: Could you place CC(C)(C)c1n[nH]c2c1C(c1ccccc1OCC(=O)O)N(c1ccc(-c3ccon3)cc1)C2=O (stereo not shown) [II-029] in its proper category? Many thanks.
Reply: band B

Query: Could you place COc1ccccc1C1c2c(C(C)(C)CO)n[nH]c2C(=O)N1c1ccc(-c2cccs2)cc1 (stereo not shown) [II-218] in its proper category? Many thanks.
Reply: band A

Query: Could you place COc1ccccc1C1c2c(C(C)(C)C)n[nH]c2C(=O)N1c1ccc(-c2cccs2)cc1 (stereo not shown) [II-213] in its proper category? Many thanks.
Reply: band A

Query: Could you place COCCOc1ncccc1C1c2c(C(C)(C)C)n[nH]c2C(=O)N1c1ccc(-c2ccon2)cc1 (stereo not shown) [II-033] in its proper category? Many thanks.
Reply: band C

Hey, just so you know, these numbers are from patent US8575197B2.
